MIC values, listed per item
# Tested on: Escherichia coli
# procedure_details: Antimicrobial activity against Escherichia coli DH5alpha harboring plasmid BC-SK after 24 hrs by broth microdilution method
# Type: functional

CO/N=C(\C(=O)N[C@@H]1C(=O)N2C(C(=O)O)=C(COC(N)=O)CS[C@H]12)c1ccco1    4 µg/mL
CCN1CCN(C(=O)N[C@@H](C(=O)N[C@@H]2C(=O)N3[C@@H]2SC(C)(C)[C@@H]3C(=O)O)c2ccccc2)C(=O)C1=O    1 µg/mL

Now examine the next entry.
QUERY: Give MIC for CC(=O)OCC1=C(C(=O)O)N2C(=O)[C@@H](NC(=O)Cc3cccs3)[C@H]2SC1
RESULT: 16 µg/mL

* * *

# System: Escherichia coli
# procedure_details: Antimicrobial activity against Escherichia coli DH5alpha harboring plasmid pLBII carrying beta-lactamase CAR-1 gene after 24 hrs by broth microdilution method
# Format: functional
Returns: string. Value is true (1) if measured MIC is below 2 µg/mL, and false (0) if it is greater than or equal to it.

Worked examples, 5 compounds total:
CC(=O)OCC1=C(C(=O)O)N2C(=O)[C@@H](NC(=O)Cc3cccs3)[C@H]2SC1 [CEPHALOTHIN]    false (0)
CC(C)(O/N=C(\C(=O)N[C@@H]1C(=O)N2C(C(=O)[O-])=C(C[n+]3ccccc3)CS[C@H]12)c1csc(N)n1)C(=O)O [CEFTAZIDIME]    true (1)
CO[C@@]1(NC(=O)C(C(=O)O)c2ccsc2)C(=O)N2[C@@H](C(=O)O)C(C)(C)S[C@@H]21 (stereo partly specified) [TEMOCILLIN]    false (0)
CO/N=C(\C(=O)N[C@@H]1C(=O)N2C(C(=O)O)=C(COC(N)=O)CS[C@H]12)c1ccco1 [CEFUROXIME]    false (0)
CO/N=C(\C(=O)N[C@@H]1C(=O)N2C(C(=O)O)=C(COC(C)=O)CS[C@H]12)c1csc(N)n1 [CEFOTAXIME]    false (0)

QUERY: # check: MIC < 2 µg/mL for C[C@H]1[C@H](NC(=O)/C(=N\OC(C)(C)C(=O)O)c2csc(N)n2)C(=O)N1S(=O)(=O)O [AZTREONAM]
RESULT: true (1)

QUERY: Take the compound CC1(C)S[C@@H]2[C@H](NC(=O)[C@H](C(=O)O)c3ccsc3)C(=O)N2[C@H]1C(=O)O [TICARCILLIN] and say whether its MIC is less than 2 µg/mL.
RESULT: false (0)

QUERY: Take the compound C[C@@H](O)[C@H]1C(=O)N2C(C(=O)O)=C(S[C@@H]3CN[C@H](C(=O)N(C)C)C3)[C@H](C)[C@H]12 [MEROPENEM] and say whether its MIC is less than 2 µg/mL.
RESULT: true (1)

QUERY: Quick check: does CO[C@@]1(NC(=O)Cc2cccs2)C(=O)N2C(C(=O)O)=C(COC(N)=O)CS[C@@H]21 [CEFOXITIN] have MIC under 2 µg/mL?
RESULT: false (0)

QUERY: Take the compound CC1(C)S[C@@H]2[C@H](NC(=O)[C@H](N)c3ccccc3)C(=O)N2[C@H]1C(=O)O [AMPICILLIN] and say whether its MIC is less than 2 µg/mL.
RESULT: false (0)

* * *

# System: Escherichia coli
# procedure_details: Antimicrobial activity against Escherichia coli DH5alpha harboring plasmid BC-SK after 24 hrs by broth microdilution method
# Format: functional
Binary call on MIC with cut-off 4 µg/mL: strictly below means class 1, and equality or higher means class 0.

QUERY: Field: below-cutoff. Rule: recorded MIC strictly less than 4 µg/mL. Subject: CC(C)(O/N=C(\C(=O)N[C@@H]1C(=O)N2C(C(=O)[O-])=C(C[n+]3ccccc3)CS[C@H]12)c1csc(N)n1)C(=O)O [CEFTAZIDIME]
RESULT: class 1
